# tested-system: NADPH oxidase 4 (Homo sapiens) (UniProt Q9NPH5)
# Sequence (Q9NPH5 whole entry, looked up): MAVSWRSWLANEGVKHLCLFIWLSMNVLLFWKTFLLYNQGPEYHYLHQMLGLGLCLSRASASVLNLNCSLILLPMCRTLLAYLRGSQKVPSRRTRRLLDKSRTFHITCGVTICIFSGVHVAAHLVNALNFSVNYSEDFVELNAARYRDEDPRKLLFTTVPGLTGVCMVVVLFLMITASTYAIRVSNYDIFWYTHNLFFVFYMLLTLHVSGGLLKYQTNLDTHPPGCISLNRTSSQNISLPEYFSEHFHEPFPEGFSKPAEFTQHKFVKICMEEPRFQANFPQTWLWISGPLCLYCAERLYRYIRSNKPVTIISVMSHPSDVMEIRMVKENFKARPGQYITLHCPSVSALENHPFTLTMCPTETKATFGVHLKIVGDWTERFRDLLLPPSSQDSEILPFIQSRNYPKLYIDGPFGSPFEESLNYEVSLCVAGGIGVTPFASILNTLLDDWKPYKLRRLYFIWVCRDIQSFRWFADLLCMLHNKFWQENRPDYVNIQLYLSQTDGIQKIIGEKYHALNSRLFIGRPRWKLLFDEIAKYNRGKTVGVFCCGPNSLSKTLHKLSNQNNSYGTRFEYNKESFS
# experiment: NOX4-dependent H2O2 signal modulators, primary screen, NOX inhibitor project, cell-based, HEK293-NOX4, tetracycline-induced, Amplex Red fluorescence (AID 1160)
# run-parameters: 45 min, higher = more signal, called active from +8 up or from −8 down
Consider the following compounds and their measured z-score readings.
Note: the reply should be a number with no unit written.

Example compounds with recorded z-score:
COC(=O)CC=C[C@@H](C)[C@@H](C=NOC[C@@H](C)[C@H](OCc1ccccc1)C(C)C)NS(=O)(=O)c1ccc(C)cc1	-0.183
CCOC(=O)CCN1C(=O)[C@H]2[C@H]3[C@H](O)[C@H](O)CC(=NNC(=O)OCc4ccccc4)[C@H]3CC[C@H]2C1=O	0.327
COC(=O)[C@H](C)NC(=O)CCC1CC(OC(=O)NCCc2ccc(F)cc2)CC2(CCCC(COC(=O)NCCc3ccccc3OC)O2)O1 (some centres undefined)	0.369

Q: What measured z-score goes with O=C(NCCC[N+]1=CC=NC1c1ccccc1)N1CCCc2nc(-c3ccc(Br)cc3)ccc21 (centres undefined) ?
A: -0.261

* * *

# experiment: E. coli acrAB mutant growth effects, primary screen, E. coli filamentation inducers, strain DRC39, OD650, 48 h (AID 1179);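 also: screen aims at cell division blockers that make cells filament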
# run-parameters: E. coli DRC39 delta-acrAB growth, higher = more signal, called active from +8 up or from −8 down
Binary classification by z-score, with -0.2 as an inclusive lower bound for condition met; all other cases are condition not met.

O=C1C[C@@H](O)[C@@H](O)[C@@H]2[C@@H]3C(=O)N(c4ccc(F)cc4F)C(=O)[C@@H]3CC[C@H]12	condition not met
CC(=O)OC[C@H]1O[C@H](C#CCC2CCCCC2)C=C[C@@H]1OC(C)=O	condition met
O=C(NN=C1C[C@@H](O)[C@@H](O)[C@@H]2[C@@H]3C(=O)N(Cc4ccc5c(c4)OCO5)C(=O)[C@@H]3CC[C@@H]12)OCc1ccccc1	condition not met
CC[C@@H](c1ccccc1)n1c(=O)n2n(c1=O)[C@H]1[C@H](O)[C@@H]3O[C@@H]3C(=NOCc3ccccc3)[C@H]1CC2	condition not met
CC(C)CON=C1C[C@@H](O)[C@@H](O)[C@@H]2[C@@H]3C(=O)N(Cc4ccccc4)C(=O)[C@@H]3CC[C@H]12	condition not met
CCCNC(=O)OC[C@H]1O[C@H](CCON=C[C@@H](C)[C@H](OCc2ccccc2)C(C)C)C=C[C@@H]1Oc1ccc(OC)cc1	condition met
CCc1cc2c(nc1CC)CCN(CCC(C)=NO[C@@H]1O[C@H](COC(C)=O)[C@@H](OC(C)=O)[C@H](OC(C)=O)[C@H]1OC(C)=O)C2	condition not met
CCOC(=O)[C@H](CC(C)C)NC(=O)CCC1CC(OC(=O)NCCc2ccc(F)cc2)CC2(CCCC(COC(=O)NCCOC)O2)O1 (stereo not given in full)	condition not met
CON=C(C)CCC(=O)OC[C@H]1O[C@H](C#Cc2ccccc2)C=C[C@@H]1Oc1ccc(C)cc1	condition not met
CC(CCN1CCCc2nc(C)c(C)cc21)=NO[C@H](C)c1cn([C@H](CO)Cc2ccccc2)nn1	condition not met

Q: Is reported z-score greater than or equal to -0.2 here: `O=C1C=C[C@@H](O)[C@@H]2[C@@H]3C(=O)N(Cc4ccc5c(c4)OCO5)C(=O)[C@@H]3CC[C@@H]12`
A: condition met

Q: Can CCC1=NOC(CCC2CC(OC(=O)NCc3cccc4c3OCO4)CC3(CCCC(COC(=O)NCCc4ccc(Cl)cc4)O3)O2)C1 (stereo not given) be said to have z-score at or above -0.2?
A: condition met

Q: Does z-score meet or surpass -0.2 for COc1ccc(OC[C@@H]2CC3[C@@H](c4ccc(Br)cc4)[C@H](C)CC[C@H]3C(=O)O2)cc1 (stereo not given in full) ?
A: condition not met

Q: Decide: z-score of `CCO[C@H](c1cc(OC)cc([N+](=O)[O-])c1OC)[C@H](C)[C@@H](OC)[C@H](C)C=CCC(=O)OC` >= -0.2?
A: condition met

Q: Is reported z-score greater than or equal to -0.2 here: `COc1ccc(COC(=O)NN=C2C[C@@H](O)[C@@H](O)[C@@H]3[C@@H]4C(=O)N(C(C)(C)C)C(=O)[C@@H]4CC[C@@H]23)cc1`
A: condition met

* * *

# experiment: modulators of HCV replicon luciferase signal, primary screen, HCV replication inhibitor project, Huh7 cells, luciferase reporter (AID 1109);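 also: huh7 hepatoma cells harbouring a luciferase neomycin HCV replicon reporter; luciferase luminescence as measure of HCV replicon replication; test concentration not given here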
# run-parameters: 48 h, higher = more signal
experimental-readout: z-score
Give the figure by itself; no unit, no explanation.

COc1ccc(COC(=O)NN=C2C[C@@H](O)[C@@H](O)[C@@H]3[C@@H]4C(=O)N(C[C@@H]5CCCO5)C(=O)[C@@H]4CC[C@@H]23)cc1	0.778

Q: What value of z-score has been reported for the following compound? `COC(=O)[C@@H]1CC[C@H](C)[C@@H](c2ccc(C)cc2)N1C(=O)c1ccc(C=NOC[C@@H](O)[C@H]2O[C@@H]3OC(C)(C)O[C@@H]3[C@H]2O)cc1`
A: -0.447

Q: Item under review: `O=C1C2=CC[C@H]3C(=O)N(c4ccc(F)cc4F)C(=O)[C@H]3[C@H]2[C@H](O)[C@@H]2O[C@H]12` . Reported z-score?
A: -0.155

Q: Entry CCOC(=O)[C@H](CC(C)C)NC(=O)CCC1CC(OC(=O)NCc2ccc3c(c2)OCO3)CC2(CCCC(COC(=O)NCCc3ccccc3OC)O2)O1 (some centres not stated) has what z-score?
A: -0.621

* * *

# experiment: small-molecule microarray binders of probe aXIP, primary screen, biochemical, NeuroSMM set, 635/667 nm fluorescence (AID 1119);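 also: probe is the protein aXip251-270 applied at 1 µg/mL to compound-printed slides; binding of probe to printed compounds measured as 667 nm fluorescence plus signal to noise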
# run-parameters: higher = more signal, called active from +8 up or from −8 down
experimental-readout: composite Z-score
The answer should be written as a number, with no unit following it.

O=C1[C@H]2[C@H]3[C@H](O)[C@H](O)CC(=NOC[C@@H](O)COCc4ccco4)[C@@H]3CC[C@H]2C(=O)N1c1cccc(Oc2ccccc2)c1	-0.352

Q: Which composite Z-score value is on record for `CCOC(=O)CCN1C(=O)[C@H]2[C@H]3[C@H](O)[C@H](O)CC(=NNC(=O)OCC)[C@H]3CC[C@H]2C1=O` ?
A: -0.17

Q: What does the data say about its composite Z-score? Entry: CCOC(=O)[C@H](Cc1ccccc1)NC(=O)CCC1CC(OC(=O)NCc2cccc3ccccc23)CC2(CCCC(COC(=O)NCCc3ccc(Cl)cc3)O2)O1 (some centres undefined)
A: -0.413

Q: What value of composite Z-score has been recorded for this entry: `COc1ccc(O[C@H]2C=C[C@@H](c3ccccc3)O[C@@H]2CO)cc1`
A: -0.0521

* * *

# experiment: PSAC antagonists in infected red cells, primary screen, cell-based, P. falciparum Indochina, OD700, 18 h (AID 1157)
# run-parameters: P. falciparum Indochina infected erythrocytes, osmotic lysis OD700, 18 h; higher = more signal, called active from +8 up or from −8 down
Reported z-score is given for each of the following molecules.
Keep the answer to the number alone.

Consider the worked cases shown below.
CC(=O)OC[C@H]1O[C@@H](ON=C(C)C)[C@H](OC(C)=O)[C@@H](OC(C)=O)[C@@H]1OC(C)=O	0.539
COC(=O)CC=C[C@@H](C)[C@@H](C=NOC[C@@H](O)[C@H]1O[C@@H]2OC(C)(C)O[C@@H]2[C@H]1O)OC	0.443
O=C1CCCC=C1C(O)c1ccc([N+](=O)[O-])cc1 (stereo not drawn)	-0.342

Q: Field request: z-score | item: `C[C@@H](c1ccccc1)N1C(=O)[C@H]2[C@H]3[C@H](O)[C@H](O)CC(=NOC[C@@H](O)COCc4ccco4)[C@H]3CC[C@H]2C1=O`
A: 0.332

Q: Tell me the measured z-score of `CON=C(C)CCC(=O)OC[C@H]1O[C@H](C#Cc2ccccc2)C=C[C@@H]1Oc1ccc(C)cc1` , please.
A: 0.073

Q: // returns reported z-score for input `C=C(C)C(=O)OC[C@H]1CN2[C@@H](CC[C@@H](C)[C@@H]2c2ccc(Br)cc2)C(=O)O1`
A: -0.196

Q: Fill in: z-score of `C[C@@H]1CC[C@H]2C(=O)O[C@@H](COc3ccc(C(C)(C)C)cc3)CN2[C@H]1c1ccc(Br)cc1` is ___
A: 0.588

Q: Query (molecule): `C#CCCCON=C1[C@H]2CCn3c(=O)n([C@@H](CC)c4ccccc4)c(=O)n3[C@H]2[C@H](O)[C@@H]2O[C@H]12` ; field requested: z-score
A: 0.0103

* * *

# tested-system: Focal adhesion kinase 1 (Homo sapiens) (UniProt Q05397)
# Sequence (Q05397 whole entry, looked up): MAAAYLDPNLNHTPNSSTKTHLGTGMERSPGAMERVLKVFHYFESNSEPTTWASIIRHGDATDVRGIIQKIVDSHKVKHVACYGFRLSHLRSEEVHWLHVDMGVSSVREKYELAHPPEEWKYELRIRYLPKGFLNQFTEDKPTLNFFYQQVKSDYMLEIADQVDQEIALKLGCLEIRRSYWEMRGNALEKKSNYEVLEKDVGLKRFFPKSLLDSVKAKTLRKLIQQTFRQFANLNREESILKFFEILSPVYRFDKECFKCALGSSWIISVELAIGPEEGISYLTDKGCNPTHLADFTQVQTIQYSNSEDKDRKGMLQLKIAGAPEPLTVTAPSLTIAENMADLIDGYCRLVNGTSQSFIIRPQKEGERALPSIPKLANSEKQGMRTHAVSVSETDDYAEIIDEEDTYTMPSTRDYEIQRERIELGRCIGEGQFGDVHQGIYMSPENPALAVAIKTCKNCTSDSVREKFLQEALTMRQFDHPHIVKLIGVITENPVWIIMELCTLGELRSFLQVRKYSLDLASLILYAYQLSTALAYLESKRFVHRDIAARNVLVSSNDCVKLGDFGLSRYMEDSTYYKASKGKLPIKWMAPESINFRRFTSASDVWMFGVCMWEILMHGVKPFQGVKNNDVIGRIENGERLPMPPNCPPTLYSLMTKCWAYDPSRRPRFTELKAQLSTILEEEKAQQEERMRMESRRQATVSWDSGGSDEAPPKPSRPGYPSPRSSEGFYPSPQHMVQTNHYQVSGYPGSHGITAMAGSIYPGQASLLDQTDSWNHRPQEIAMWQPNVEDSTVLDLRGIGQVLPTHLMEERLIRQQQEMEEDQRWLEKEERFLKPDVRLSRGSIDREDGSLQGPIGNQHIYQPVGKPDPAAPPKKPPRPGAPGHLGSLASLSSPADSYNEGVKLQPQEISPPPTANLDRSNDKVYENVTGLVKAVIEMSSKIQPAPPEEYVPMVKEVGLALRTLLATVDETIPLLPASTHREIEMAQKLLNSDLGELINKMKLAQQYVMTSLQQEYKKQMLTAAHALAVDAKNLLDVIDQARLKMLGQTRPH
# experiment: small-molecule microarray binders of FAK, primary screen, biochemical, 635/667 nm fluorescence, BSA, DTT (AID 1130);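 also: composite of spot emission at 667 nm and signal to noise over triplicate slides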
# run-parameters: PTK2 binding, 635 nm fluorescence, higher = more signal
Quick reference for composite z-score among some compounds
Output: the number by itself.

Solved cases (7 shown):
COC(=O)CC=C[C@@H](C)[C@@H](C=NOC[C@@H](C)[C@H](OCc1ccccc1)C(C)C)OC	0.0285
COC(=O)C(C(=O)OC)C1CCCC(=O)C1 (stereo not drawn)	0.193
CCOC(=O)CCN1C(=O)[C@H]2[C@H]3[C@H](O)[C@H](O)CC(=NO[C@@H]4O[C@H](CO)[C@@H](O)[C@H](O)[C@H]4O)[C@H]3CC[C@H]2C1=O	0.068
CCOC(=O)CCN1C(=O)[C@H]2[C@H]3[C@H](O)[C@H](O)CC(=NNC(=O)OCc4ccc(OC)cc4)[C@H]3CC[C@H]2C1=O	0.0684
O=C(NN=C1C[C@@H](O)[C@@H](O)[C@@H]2[C@@H]3C(=O)N(Cc4ccccc4)C(=O)[C@@H]3CC[C@H]12)OCc1ccccc1	0.0773
COc1cccc([C@H](O)Cn2cc(-c3ccc(CON=C(C)C)cc3)nn2)c1	-0.351
C[C@@H]1CC[C@H]2C(=O)O[C@@H](COc3ccc(C(C)(C)C)cc3)CN2[C@H]1c1ccc(Br)cc1	-0.171

We next turn to a different compound, shown below.
Q: So what's the measured composite z-score for this one? `CCc1cc2c(nc1CC)CCN(CCC(C)=NOCC[C@@H]1C=C[C@H](OC(C)=O)[C@@H](COC(C)=O)O1)C2`
A: 0.174
